Catalogue of compounds with associated GI50
# protocol-summary: Anticancer activity against human NCI60 cells
# Format: functional
Give a bare numeral; the unit nM is implied.

O=C(c1ccccc1)c1c(C(F)(F)F)[n+]([O-])c2ccc(F)cc2[n+]1[O-] :: 780

Q: Form field: reported GI50 of Cc1cc2c(cc1C)[n+]([O-])c(C(F)(F)F)c(C(=O)c1cccs1)[n+]2[O-]
Result: 3470

Q: Same lookup for O=C(c1ccco1)c1nc2ccc(C(F)(F)F)cc2[n+]([O-])c1C(F)(F)F , please.
Result: 47900

Q: Please give the result for O=C(c1ccco1)c1c(C(F)(F)F)[n+]([O-])c2cc(F)c(F)cc2[n+]1[O-] too.
Result: 380

Q: Similarly, O=C(c1ccc2ccccc2c1)c1c(C(F)(F)F)[n+]([O-])c2cc(F)c(F)cc2[n+]1[O-] ?
Result: 2190
